The values you see were collected from patent US8981094B2.

Task for the reader: assign each of the following compounds its reported melting point.

Provide melting point value for the following compound: "C=CCN(CC(=O)Nc1ccc(N2CCN(C(=O)Nc3c(Cl)cc(OC)cc3Cl)CC2)cc1)Cc1ccc(C)cc1C" 149 to 150 °C

Provide melting point value for the following compound: "O=C(CCc1ccncc1)Nc1ccc(N2CCN(C(=O)Nc3c(Cl)cccc3Cl)CC2)cc1" 263 to 264 °C

With those in mind, consider the next compound.
Provide melting point value for the following compound: "Cc1ccc(NCCC(=O)Nc2ccc(N3CCN(C(=O)Nc4c(Cl)cc(O)cc4Cl)CC3)cc2)c(C)c1" 227 to 228 °C

---

testedSystem: human DGAT1 (Homo sapiens)
Sequence (O75907 whole entry): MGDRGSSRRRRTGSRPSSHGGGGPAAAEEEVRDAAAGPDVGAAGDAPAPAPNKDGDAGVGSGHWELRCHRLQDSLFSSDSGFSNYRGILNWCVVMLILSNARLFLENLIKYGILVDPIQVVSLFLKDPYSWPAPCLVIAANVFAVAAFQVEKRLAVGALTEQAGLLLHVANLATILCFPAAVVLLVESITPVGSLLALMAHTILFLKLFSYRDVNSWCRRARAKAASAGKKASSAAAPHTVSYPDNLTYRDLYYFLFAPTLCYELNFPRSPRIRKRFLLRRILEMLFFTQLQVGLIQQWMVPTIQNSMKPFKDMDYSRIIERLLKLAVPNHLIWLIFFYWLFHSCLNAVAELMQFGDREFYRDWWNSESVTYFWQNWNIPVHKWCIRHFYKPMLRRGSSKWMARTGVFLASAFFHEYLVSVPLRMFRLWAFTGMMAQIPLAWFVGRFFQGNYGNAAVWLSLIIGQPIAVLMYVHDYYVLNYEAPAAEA
IC50 vs 0.5 µM: less than gives 1; not less than gives 0.

Take a look at these entries with their results.
Identify whether the compound "O=C(Cn1ccnc1)Nc1ccc(C2CCN(C(=O)Nc3c(Cl)cccc3Cl)CC2)cc1" records IC50 below 0.5 µM. 0

Identify whether the compound "COC(=O)CCCC(=O)Nc1ccc(N2CCN(C(=O)Nc3c(Cl)cccc3Cl)CC2)cc1" records IC50 below 0.5 µM. 1

Identify whether the compound "COc1ccc(CC(=O)Nc2ccc(N3CCN(C(=O)Nc4c(Cl)cc(OC)cc4Cl)CC3)cc2)cc1" records IC50 below 0.5 µM. 1

Next:
Identify whether the compound "O=C(CCc1cccnc1)Nc1ccc(N2CCN(C(=O)Nc3c(Cl)cccc3Cl)CC2)cc1" records IC50 below 0.5 µM. 1

Identify whether the compound "COc1ccc(CN(C)C(=O)c2ccc(N3CCN(C(=O)Nc4c(Cl)cc(CN5CCCC5)cc4Cl)CC3)cc2)cc1" records IC50 below 0.5 µM. 0
